Recorded compound remaining in pH = 1.2 solution (%), one value per entry.
Assay: In vitro stability in pH 1.2 solution (USP Gastric fluid without enzymes)
Settings: Time 0.167 h, 37° C.
metric-name: compound remaining in pH = 1.2 solution (%)

[[record]]
molecule = "CCOc1cc(/C=C/c2ccc(OC(=O)OCCNC(=O)CN)cc2)cc(OCC)c1.Cl"
value_observed = 130.5

[[record]]
molecule = "COc1cc(/C=C/c2ccc(OC(=O)OCCNC(=O)C(N)Cc3ncc[nH]3)cc2)cc(OC)c1.Cl.Cl (stereo not drawn)"
value_observed = 88.6

[[record]]
molecule = "COc1cc(/C=C/c2ccc(OC(=O)OCCNC(=O)CN)cc2)cc(OC)c1.Cl"
value_observed = 104.6

[[record]]
molecule = "Cl.[2H]C([2H])([2H])Oc1cc(/C=C/c2ccc(OC(=O)OCCNC(=O)CN)cc2)cc(OC([2H])([2H])[2H])c1"
value_observed = 106.4

[[record]]
molecule = "COc1cc(/C=C/c2ccc(OC(=O)OCCNC(=O)CN)cc2)cc(OC)c1.O=C(O)c1cccnc1"
value_observed = 100.6

[[record]]
molecule = "COc1cc(/C=C/c2ccc(OC(=O)OCCNC(=O)C(N)C(C)C)cc2)cc(OC)c1.O=C(O)c1cccnc1 (stereo not drawn)"
value_observed = 128.3


----------
Tested on: hepatic steatosis induced by MCD diet
Test: Histological examination (H&E stain) of liver of MCD diet mice
Assay type: in vivo, Male C57BL/6 mice
Settings: average of Scores of the group; 100 mg/kg oral, PG/TPSG (1:1)
Recorded Avg, one value per entry.
metric-name: Avg

[[record]]
compound = "CCC(C)C(N)C(=O)NCCOC(=O)Oc1ccc(/C=C/c2cc(OC)cc(OC)c2)cc1.Cl (centres unmarked) [Compound 5e]"
value_observed = 7.75

[[record]]
compound = "COc1cc(/C=C/c2ccc(OC(=O)OCCNC(=O)C(N)C(C)C)c(OC)c2)cc(OC)c1.Cl (centres unmarked) [Compound 6g]"
value_observed = 7.75

[[record]]
compound = "COc1cc(/C=C/c2ccc(OC(=O)OCCNC(=O)C(N)C(C)O)cc2)cc(OC)c1.Cl (centres unmarked) [Compound 5h]"
value_observed = 8

[[record]]
compound = "COc1cc(/C=C/c2ccc(OC(=O)OCCNC(=O)C(N)CCSC)cc2)cc(OC)c1.Cl (centres unmarked) [Compound 5f]"
value_observed = 6.25

[[record]]
compound = "COc1cc(/C=C/c2ccc(OC(=O)OCCNC(=O)C(N)Cc3ccccc3)cc2)cc(OC)c1.Cl (centres unmarked) [Compound 5j]"
value_observed = 7.75

[[record]]
compound = "COc1cc(/C=C/c2ccc(OC(=O)OCCNC(=O)C(N)C(C)C)cc2)cc(OC)c1.O=C(O)c1cccnc1 (centres unmarked) [Compound 5w]"
value_observed = 7.50

[[record]]
compound = "COc1cc(/C=C/c2ccc(OC(=O)OCCNC(=O)C3CCCN3)cc2)cc(OC)c1.Cl (centres unmarked) [Compound 5t]"
value_observed = 7.75

[[record]]
compound = "COc1cc(/C=C/c2ccc(OC(=O)NCCNC(=O)C(N)C(C)C)cc2)cc(OC)c1.Cl (centres unmarked) [Compound 7c]"
value_observed = 7.75

[[record]]
compound = "COc1cc(/C=C/c2ccc(OC(=O)OCCNC(=O)C(N)CO)cc2)cc(OC)c1.Cl (centres unmarked) [Compound 5g]"
value_observed = 6.5

[[record]]
compound = "COc1cc(/C=C/c2ccc(OC(=O)OCCNC(=O)C(C)N)cc2)cc(OC)c1.Cl (centres unmarked) [Compound 5b]"
value_observed = 4.5

[[record]]
compound = "COc1cc(/C=C/c2ccc(OC(=O)NCCNC(=O)C(N)Cc3ccccc3)cc2)cc(OC)c1.Cl (centres unmarked) [Compound 7e]"
value_observed = 7.75

